# assayTarget: Recombinant human His-tagged Trim24-PHD-bromodomain (Homo sapiens, UniProt O15164)
# Construct: Recombinant human His-tagged Trim24-PHD-bromodomain (produced in-house)
# Sequence (O15164 824-1006 limits assumed): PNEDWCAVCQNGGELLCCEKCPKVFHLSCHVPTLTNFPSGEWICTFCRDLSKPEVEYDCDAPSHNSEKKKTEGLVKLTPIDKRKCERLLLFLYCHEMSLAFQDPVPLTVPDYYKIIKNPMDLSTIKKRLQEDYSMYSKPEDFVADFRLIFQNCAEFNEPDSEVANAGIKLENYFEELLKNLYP
# procedureDetails: Trim24 AlphaScreen Assay
# appliedConditions: 5 nM Trim24 protein, 15 nM biotinylated H3K23ac (1-33aa) peptide
propertyName: IC50

1. COCCCOc1cc(OCC(F)(F)F)cc(Oc2cc3c(cc2NS(=O)(=O)c2cn(C)c(C)n2)n(C)c(=O)n3C)c1    10 to 100 nM
2. CCCOc1cc(OCCCOC)cc(Oc2cc3c(cc2NS(=O)(=O)c2cccnc2)n(C)c(=O)n3C)c1    10 to 100 nM
3. Cn1c(=O)n(C)c2cc(Oc3cccc(OCc4ccccc4)c3)c(NS(=O)(=O)c3cccc(F)c3)cc21    100 to 1000 nM
4. CCCOc1cccc(Oc2cc3c(cc2NS(=O)(=O)c2c(C)n[nH]c2C)n(C)c(=O)n3C)c1    10 to 100 nM
5. Cn1cnc(S(=O)(=O)Nc2cc3c(cc2Oc2cccc(OCCCCCCN)c2)n(C)c(=O)n3C)c1    100 to 1000 nM
6. Cc1nc(S(=O)(=O)Nc2cc3c(cc2Oc2cccc(OCC(=O)N(C)C)c2)n(C)c(=O)n3C)cn1C    > 1000 nM
7. CCCOc1cc(OCCCOC)cc(Oc2cc3c(cc2NS(=O)(=O)c2ccc(N(C)C)cc2)n(C)c(=O)n3C)c1    100 to 1000 nM

* * *

pIC50 values, listed per item
# assayTarget: Recombinant human His-tagged Trim24-PHD-bromodomain (Homo sapiens, UniProt O15164)
# Construct: Recombinant human His-tagged Trim24-PHD-bromodomain (produced in-house)
# procedureDetails: Trim24 AlphaScreen Assay
# appliedConditions: 5 nM Trim24 protein, 15 nM biotinylated H3K23ac (1-33aa) peptide
pIC50: −log10 of the molar value.
propertyName: pIC50

1. COC(=O)c1cccc(S(=O)(=O)Nc2cc3c(cc2Oc2cccc(OCC(F)(F)F)c2)n(C)c(=O)n3C)c1    7.00 to 8.00
2. CCCOc1cc(OCCCOC)cc(Oc2cc3c(cc2NS(=O)(=O)c2ccc4c(c2)COC4)n(C)c(=O)n3C)c1    6.00 to 7.00
3. CC(C)COc1cc(Cl)cc(Oc2cc3c(cc2NS(=O)(=O)c2cn(C)cn2)n(C)c(=O)n3C)c1    7.00 to 8.00
4. C=CCOc1cccc(S(=O)(=O)Nc2cc3c(cc2Oc2cccc(OCC(F)(F)F)c2)n(C)c(=O)n3C)c1    6.00 to 7.00
5. Cn1cnc(S(=O)(=O)Nc2cc3c(cc2Oc2cccc(OCC(C)(O)CNCCN)c2)n(C)c(=O)n3C)c1 (centres unmarked)    6.00 to 7.00
6. CCCOc1cccc(Oc2cc3c(cc2NS(=O)(=O)c2ccccn2)n(C)c(=O)n3C)c1    7.00 to 8.00
7. Cc1c(S(=O)(=O)Nc2cc3c(cc2Oc2cccc(OCc4ccccc4)c2)n(C)c(=O)n3C)cnn1C    6.00 to 7.00
8. CCCOc1cc(OCCCCN(C)C)cc(Oc2cc3c(cc2NS(=O)(=O)c2cccc(C(=O)O)c2)n(C)c(=O)n3C)c1    7.00 to 8.00
9. Cn1cnc(S(=O)(=O)Nc2cc3c(cc2Oc2cccc(OCC4CC4)c2)n(C)c(=O)n3C)c1    7.00 to 8.00
10. Cn1cnc(S(=O)(=O)Nc2cc3c(cc2Oc2cccc(OCC4(C)CO4)c2)n(C)c(=O)n3C)c1 (centres unmarked)    6.00 to 7.00
11. CNCC(C)(O)COc1cccc(Oc2cc3c(cc2NS(=O)(=O)c2cn(C)cn2)n(C)c(=O)n3C)c1 (centres unmarked)    < 6.00
12. CCc1cc(OCC(C)C)cc(Oc2cc3c(cc2NS(=O)(=O)c2cn(C)cn2)n(C)c(=O)n3C)c1    7.00 to 8.00
13. CCCOc1ccc(F)c(Oc2cc3c(cc2NS(=O)(=O)c2cn(C)c(C)n2)n(C)c(=O)n3C)c1    6.00 to 7.00
14. COc1ccc(S(=O)(=O)Nc2cc3c(cc2Oc2ccc(F)c(OCC4CC4)c2)n(C)c(=O)n3C)cc1OC    6.00 to 7.00
15. Cc1c(S(=O)(=O)Nc2cc3c(cc2Oc2cc(OCCCCCCN)cc(OCC(F)(F)F)c2)n(C)c(=O)n3C)cnn1C    8.00 to 9.00
16. Cn1cnc(S(=O)(=O)Nc2cc3c(cc2Oc2cccc(OCc4ccncc4)c2)n(C)c(=O)n3C)c1    6.00 to 7.00
17. Cn1cnc(S(=O)(=O)Nc2cc3c(cc2Oc2cc(OCCCCCCN)cc(OCC(F)(F)F)c2)n(C)c(=O)n3C)c1    8.00 to 9.00
18. COCCCn1cnc(S(=O)(=O)Nc2cc3c(cc2Oc2cccc(OCC(F)(F)F)c2)n(C)c(=O)n3C)c1    7.00 to 8.00
19. CCCCOc1cccc(Oc2cc3c(cc2NS(=O)(=O)c2cn(C)c(C)n2)n(C)c(=O)n3C)c1    6.00 to 7.00
20. CCCOc1cccc(Oc2cc3c(cc2NS(=O)(=O)c2cnn(C)c2C)n(C)c(=O)n3C)c1    7.00 to 8.00
21. COc1ccc(S(=O)(=O)Nc2cc3c(cc2Oc2cccc(OCc4ccccc4)c2)n(C)c(=O)n3C)cc1OC    6.00 to 7.00
22. COCCCOc1cc(OCCCOC)cc(Oc2cc3c(cc2NS(=O)(=O)c2cn(C)c(C)n2)n(C)c(=O)n3C)c1    7.00 to 8.00
23. Cc1ccsc1S(=O)(=O)Nc1cc2c(cc1Oc1cccc(OCc3ccccc3)c1)n(C)c(=O)n2C    < 6.00
24. Cn1cc(S(=O)(=O)Nc2cc3c(cc2Oc2cccc(OCc4ccccc4)c2)n(C)c(=O)n3C)cn1    6.00 to 7.00
25. COc1ccc(S(=O)(=O)Nc2cc3c(cc2Oc2cccc(OCc4ccccc4)c2)n(C)c(=O)n3C)cc1    6.00 to 7.00
26. CCCOc1cc(OCCCCCCN)cc(Oc2cc3c(cc2NS(=O)(=O)c2cccc(C(=O)OC)c2)n(C)c(=O)n3C)c1    7.00 to 8.00
27. Cc1nc(S(=O)(=O)Nc2cc3c(cc2Oc2cccc(OCC(F)(F)F)c2)n(C)c(=O)n3C)cn1C    7.00 to 8.00
28. Cn1c(=O)n(C)c2cc(Oc3cccc(OCc4ccccc4)c3)c(NS(=O)(=O)c3cccc(Br)c3)cc21    < 6.00
29. CC(C)c1cccc(S(=O)(=O)Nc2cc3c(cc2Oc2cccc(OCc4ccccc4)c2)n(C)c(=O)n3C)c1    < 6.00

* * *

# assayTarget: Recombinant human His-tagged Trim24-PHD-bromodomain (Homo sapiens)
# Construct: Recombinant human His-tagged Trim24-PHD-bromodomain (produced in-house); made in house
# Sequence (O15164 824-1006 limits assumed): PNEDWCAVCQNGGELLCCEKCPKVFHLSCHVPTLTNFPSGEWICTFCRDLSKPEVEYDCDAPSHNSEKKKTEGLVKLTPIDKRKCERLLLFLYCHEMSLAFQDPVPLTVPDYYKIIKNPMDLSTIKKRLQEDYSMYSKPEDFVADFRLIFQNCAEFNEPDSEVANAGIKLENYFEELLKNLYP
# procedureDetails: Trim24 AlphaScreen Assay
# Assay type: binding
# appliedConditions: 5 nM Trim24 protein, 15 nM biotinylated H3K23ac (1-33aa) peptide
pIC50: −log10 of the molar value.
pIC50 values, listed per item
propertyName: pIC50

1) CCCOc1cccc(Oc2cc3c(cc2NS(=O)(=O)c2nnc[nH]2)n(C)c(=O)n3C)c1    6.00 to 7.00
2) CCCOc1cc(OCCCCN)cc(Oc2cc3c(cc2NS(=O)(=O)c2ccc(OC)c(OC)c2)n(C)c(=O)n3C)c1    8.00 to 9.00
3) Cn1cnc(S(=O)(=O)Nc2cc3c(cc2Oc2cccc(OCCCO)c2)n(C)c(=O)n3C)c1    6.00 to 7.00
4) CCCOc1cccc(Oc2cc3c(cc2NS(=O)(=O)c2ccc(OC)c(OC)c2)n(C)c(=O)n3C)c1    7.00 to 8.00

* * *

# assayTarget: Recombinant human His-tagged Trim24-PHD-bromodomain (Homo sapiens)
# Construct: Recombinant human His-tagged Trim24-PHD-bromodomain (produced in-house)
# Sequence (O15164 824-1006 limits assumed): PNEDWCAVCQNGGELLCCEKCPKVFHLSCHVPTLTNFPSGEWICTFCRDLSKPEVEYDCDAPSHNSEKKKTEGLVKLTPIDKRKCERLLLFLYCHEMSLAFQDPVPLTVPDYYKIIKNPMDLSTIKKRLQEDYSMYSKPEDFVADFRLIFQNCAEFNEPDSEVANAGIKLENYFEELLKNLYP
# procedureDetails: Trim24 AlphaScreen Assay
# appliedConditions: 5 nM Trim24 protein, 15 nM biotinylated H3K23ac (1-33aa) peptide
IC50 values, listed per item
propertyName: IC50

1. CCCOc1cc(OCCCCCCN)cc(Oc2cc3c(cc2NS(=O)(=O)c2cccnc2)n(C)c(=O)n3C)c1 [Example 183]    1 to 10 nM
2. COCCCOc1cc(OCC(F)(F)F)cc(Oc2cc3c(cc2NS(=O)(=O)c2ccc(OC)c(OC)c2)n(C)c(=O)n3C)c1 [Example 195]    10 to 100 nM
3. CCCOc1cccc(Oc2cc3c(cc2NS(=O)(=O)c2cnn(C)c2)n(C)c(=O)n3C)c1 [Example 75]    10 to 100 nM
4. CCCOc1cc(OCCCC#N)cc(Oc2cc3c(cc2NS(=O)(=O)c2cn(C)c(C)n2)n(C)c(=O)n3C)c1 [Example 124]    10 to 100 nM
5. CCCOc1cc(OCCCCN2CC(O)C2)cc(Oc2cc3c(cc2NS(=O)(=O)c2ccc(OC)c(OC)c2)n(C)c(=O)n3C)c1 [Example 248]    10 to 100 nM
6. COc1ccc(S(=O)(=O)Nc2cc3c(cc2Oc2cccc(OCc4ccc(Cl)nc4)c2)n(C)c(=O)n3C)cc1OC [Example 20]    > 1000 nM
7. COc1cc(OCC(C)C)cc(Oc2cc3c(cc2NS(=O)(=O)c2cn(C)c(C)n2)n(C)c(=O)n3C)c1 [Example 66]    10 to 100 nM
8. Cc1c(S(=O)(=O)Nc2cc3c(cc2Oc2cc(OCCCCN(C)C)cc(OCC(F)(F)F)c2)n(C)c(=O)n3C)cnn1C [Example 212]    1 to 10 nM
9. CCCOc1cc(OCCCCN2CCC2)cc(Oc2cc3c(cc2NS(=O)(=O)c2ccc(OC)c(OC)c2)n(C)c(=O)n3C)c1 [Example 251]    1 to 10 nM
10. Cn1cnc(S(=O)(=O)Nc2cc3c(cc2Oc2cccc(OCC(C)(O)CN)c2)n(C)c(=O)n3C)c1 (stereo not shown) [Example 234]    > 1000 nM
11. CCCOc1cc(OCCCOC)cc(Oc2cc3c(cc2NS(=O)(=O)c2cnn(C)c2C)n(C)c(=O)n3C)c1 [Example 154]    10 to 100 nM
12. COCCCOc1cc(C#N)cc(Oc2cc3c(cc2NS(=O)(=O)c2cn(C)c(C)n2)n(C)c(=O)n3C)c1 [Example 120]    100 to 1000 nM
13. CCCOc1cccc(Oc2cc3c(cc2NS(=O)(=O)c2cc(C)nn2C)n(C)c(=O)n3C)c1 [Example 93]    100 to 1000 nM
14. CCCOc1cccc(Oc2cc3c(cc2NS(=O)(=O)c2cn(C)cn2)n(C)c(=O)n3C)c1Cl [Example 111]    > 1000 nM
15. CCCOc1cc(OCCCOC)cc(Oc2cc3c(cc2NS(=O)(=O)c2cn(C(C)CC)cn2)n(C)c(=O)n3C)c1 (stereo not shown) [Example 148]    10 to 100 nM
16. Cn1cnc(S(=O)(=O)Nc2cc3c(cc2Oc2cccc(OCC(C)(O)CO)c2)n(C)c(=O)n3C)c1 (stereo not shown) [Example 231]    100 to 1000 nM
17. COc1ccc(S(=O)(=O)Nc2cc3c(cc2Oc2cc(OCCCCN)cc(OCC(F)(F)F)c2)n(C)c(=O)n3C)cc1OC [Example 210]    10 to 100 nM
18. C=CCN(c1cc2c(cc1Oc1cccc(OCCC)c1)n(C)c(=O)n2C)S(=O)(=O)c1cn(CC=C)cn1 [Example 244]    100 to 1000 nM
19. CCCOc1cc(OCCCOC)cc(Oc2cc3c(cc2NS(=O)(=O)c2cccc(OC)c2)n(C)c(=O)n3C)c1 [Example 151]    10 to 100 nM
20. CCCOc1cc(C#N)cc(Oc2cc3c(cc2NS(=O)(=O)c2cn(C)cn2)n(C)c(=O)n3C)c1 [Example 108]    10 to 100 nM
21. COc1ccc(S(=O)(=O)Nc2cc3c(cc2Oc2cccc(OCCCCCCN)c2)n(C)c(=O)n3C)cc1OC [Example 145]    10 to 100 nM
22. CCCOc1cc(OCCCOC)cc(Oc2cc3c(cc2NS(=O)(=O)c2cc(OC)cc(OC)c2)n(C)c(=O)n3C)c1 [Example 166]    100 to 1000 nM
23. Cn1cc(S(=O)(=O)Nc2cc3c(cc2Oc2cccc(OCC4CC4)c2)n(C)c(=O)n3C)cn1 [Example 101]    10 to 100 nM
24. CCCOc1cc(OCCCOC)cc(Oc2cc3c(cc2NS(=O)(=O)c2cccc(C)c2)n(C)c(=O)n3C)c1 [Example 155]    100 to 1000 nM
25. COc1ccc(S(=O)(=O)Nc2cc3c(cc2Oc2cccc(OCC(F)(F)F)c2)n(C)c(=O)n3C)cc1OC [Example 184]    10 to 100 nM
26. Cn1cnc(S(=O)(=O)Nc2cc3c(cc2Oc2cccc(OCCCC#N)c2)n(C)c(=O)n3C)c1 [Example 97]    100 to 1000 nM
27. CCCOc1cc(OCCCCCCNC(=O)OC(C)(C)C)cc(Oc2cc3c(cc2NS(=O)(=O)c2cn(C)cn2)n(C)c(=O)n3C)c1 [Example 119]    100 to 1000 nM
28. CCCOc1cc(OCCCOC)cc(Oc2cc3c(cc2NS(=O)(=O)c2cccc(CC)c2)n(C)c(=O)n3C)c1 [Example 160]    100 to 1000 nM
